experimental_target: Human Cav 2.2 channels (Homo sapiens, UniProt Q00975)
Sequence (Q00975 whole entry): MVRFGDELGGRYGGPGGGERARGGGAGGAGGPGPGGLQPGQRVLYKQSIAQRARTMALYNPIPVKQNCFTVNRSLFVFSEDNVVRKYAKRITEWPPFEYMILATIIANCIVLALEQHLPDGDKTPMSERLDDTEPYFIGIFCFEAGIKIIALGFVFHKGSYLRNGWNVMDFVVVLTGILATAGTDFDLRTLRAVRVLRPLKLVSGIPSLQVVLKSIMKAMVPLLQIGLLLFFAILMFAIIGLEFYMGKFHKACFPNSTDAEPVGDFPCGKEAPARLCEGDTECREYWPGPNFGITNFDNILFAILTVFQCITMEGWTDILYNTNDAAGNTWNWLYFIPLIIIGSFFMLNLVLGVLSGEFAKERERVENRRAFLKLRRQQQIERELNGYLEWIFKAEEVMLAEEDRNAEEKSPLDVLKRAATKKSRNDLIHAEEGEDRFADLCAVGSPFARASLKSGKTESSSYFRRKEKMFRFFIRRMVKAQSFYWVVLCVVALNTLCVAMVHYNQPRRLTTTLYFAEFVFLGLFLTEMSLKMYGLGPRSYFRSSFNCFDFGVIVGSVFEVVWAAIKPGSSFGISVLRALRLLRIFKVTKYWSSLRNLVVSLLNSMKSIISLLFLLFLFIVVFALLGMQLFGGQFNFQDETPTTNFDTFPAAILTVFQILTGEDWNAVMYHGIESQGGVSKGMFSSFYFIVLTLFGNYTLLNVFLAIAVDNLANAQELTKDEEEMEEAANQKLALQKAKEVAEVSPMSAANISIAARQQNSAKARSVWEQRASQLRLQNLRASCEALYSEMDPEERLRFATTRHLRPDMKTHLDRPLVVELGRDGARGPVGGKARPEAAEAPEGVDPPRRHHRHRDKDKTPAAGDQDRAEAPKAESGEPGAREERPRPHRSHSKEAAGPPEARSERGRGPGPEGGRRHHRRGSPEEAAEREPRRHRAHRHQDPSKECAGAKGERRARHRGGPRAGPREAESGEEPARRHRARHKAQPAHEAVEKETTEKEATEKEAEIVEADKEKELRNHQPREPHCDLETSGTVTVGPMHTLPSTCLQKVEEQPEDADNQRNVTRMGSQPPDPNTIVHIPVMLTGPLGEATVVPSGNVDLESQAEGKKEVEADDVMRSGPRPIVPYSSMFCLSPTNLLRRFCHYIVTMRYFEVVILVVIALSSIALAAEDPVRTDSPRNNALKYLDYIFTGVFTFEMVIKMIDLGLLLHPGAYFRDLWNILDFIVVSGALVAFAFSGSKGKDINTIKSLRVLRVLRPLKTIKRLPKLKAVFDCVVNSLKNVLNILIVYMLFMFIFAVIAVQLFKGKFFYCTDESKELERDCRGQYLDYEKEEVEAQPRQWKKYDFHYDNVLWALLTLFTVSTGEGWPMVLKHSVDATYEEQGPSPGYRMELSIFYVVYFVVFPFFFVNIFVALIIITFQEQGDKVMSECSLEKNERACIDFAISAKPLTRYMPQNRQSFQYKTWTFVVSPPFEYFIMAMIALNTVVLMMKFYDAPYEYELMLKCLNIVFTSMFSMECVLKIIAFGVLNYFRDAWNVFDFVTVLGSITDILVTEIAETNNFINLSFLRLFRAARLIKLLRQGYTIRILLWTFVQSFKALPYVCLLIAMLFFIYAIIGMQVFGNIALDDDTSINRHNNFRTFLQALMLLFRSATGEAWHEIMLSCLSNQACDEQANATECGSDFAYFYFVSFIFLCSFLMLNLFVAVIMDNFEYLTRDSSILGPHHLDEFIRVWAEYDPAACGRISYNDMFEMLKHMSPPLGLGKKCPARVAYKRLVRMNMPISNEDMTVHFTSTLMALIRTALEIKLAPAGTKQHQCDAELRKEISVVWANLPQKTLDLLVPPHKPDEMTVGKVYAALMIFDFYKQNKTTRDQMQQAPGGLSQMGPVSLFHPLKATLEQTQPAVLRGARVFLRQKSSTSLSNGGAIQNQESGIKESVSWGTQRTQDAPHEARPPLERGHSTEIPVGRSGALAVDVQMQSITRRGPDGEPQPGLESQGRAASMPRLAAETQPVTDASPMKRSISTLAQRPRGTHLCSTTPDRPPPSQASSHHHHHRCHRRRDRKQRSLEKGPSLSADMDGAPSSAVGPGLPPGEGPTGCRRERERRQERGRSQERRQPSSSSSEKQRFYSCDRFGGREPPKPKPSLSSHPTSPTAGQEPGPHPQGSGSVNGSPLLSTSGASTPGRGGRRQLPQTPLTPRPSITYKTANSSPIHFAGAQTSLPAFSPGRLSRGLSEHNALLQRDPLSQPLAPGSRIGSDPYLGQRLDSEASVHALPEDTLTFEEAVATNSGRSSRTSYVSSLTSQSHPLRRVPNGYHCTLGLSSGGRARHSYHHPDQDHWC
Sequence (P54289 25-1103 partner): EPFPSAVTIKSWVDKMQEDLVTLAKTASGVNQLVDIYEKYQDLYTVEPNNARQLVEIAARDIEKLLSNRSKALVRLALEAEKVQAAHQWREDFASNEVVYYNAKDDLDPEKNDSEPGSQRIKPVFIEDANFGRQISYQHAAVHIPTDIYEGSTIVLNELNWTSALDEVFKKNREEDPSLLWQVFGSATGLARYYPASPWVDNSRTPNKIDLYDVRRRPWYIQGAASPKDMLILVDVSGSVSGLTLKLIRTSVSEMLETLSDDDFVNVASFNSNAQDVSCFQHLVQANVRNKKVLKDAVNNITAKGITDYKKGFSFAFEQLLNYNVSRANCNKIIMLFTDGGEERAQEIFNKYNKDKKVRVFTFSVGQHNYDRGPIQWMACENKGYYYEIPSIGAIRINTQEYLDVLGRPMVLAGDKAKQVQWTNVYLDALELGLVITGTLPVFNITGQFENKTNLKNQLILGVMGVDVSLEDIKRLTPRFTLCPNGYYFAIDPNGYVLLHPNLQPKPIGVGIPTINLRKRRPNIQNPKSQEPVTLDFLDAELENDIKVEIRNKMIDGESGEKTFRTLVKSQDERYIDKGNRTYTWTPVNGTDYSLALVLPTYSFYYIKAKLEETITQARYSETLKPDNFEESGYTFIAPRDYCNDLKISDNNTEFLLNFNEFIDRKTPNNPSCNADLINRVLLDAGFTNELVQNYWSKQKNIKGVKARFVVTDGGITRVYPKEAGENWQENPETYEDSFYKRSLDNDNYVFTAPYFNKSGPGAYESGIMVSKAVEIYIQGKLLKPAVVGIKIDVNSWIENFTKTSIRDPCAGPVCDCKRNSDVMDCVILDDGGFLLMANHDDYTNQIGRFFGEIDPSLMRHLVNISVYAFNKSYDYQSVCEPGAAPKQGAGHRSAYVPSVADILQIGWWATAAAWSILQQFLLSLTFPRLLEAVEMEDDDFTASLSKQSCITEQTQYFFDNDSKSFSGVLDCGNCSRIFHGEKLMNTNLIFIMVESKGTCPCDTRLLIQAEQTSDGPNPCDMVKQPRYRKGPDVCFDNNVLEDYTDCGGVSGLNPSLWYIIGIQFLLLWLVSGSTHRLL
Sequence (P54284 whole entry partner): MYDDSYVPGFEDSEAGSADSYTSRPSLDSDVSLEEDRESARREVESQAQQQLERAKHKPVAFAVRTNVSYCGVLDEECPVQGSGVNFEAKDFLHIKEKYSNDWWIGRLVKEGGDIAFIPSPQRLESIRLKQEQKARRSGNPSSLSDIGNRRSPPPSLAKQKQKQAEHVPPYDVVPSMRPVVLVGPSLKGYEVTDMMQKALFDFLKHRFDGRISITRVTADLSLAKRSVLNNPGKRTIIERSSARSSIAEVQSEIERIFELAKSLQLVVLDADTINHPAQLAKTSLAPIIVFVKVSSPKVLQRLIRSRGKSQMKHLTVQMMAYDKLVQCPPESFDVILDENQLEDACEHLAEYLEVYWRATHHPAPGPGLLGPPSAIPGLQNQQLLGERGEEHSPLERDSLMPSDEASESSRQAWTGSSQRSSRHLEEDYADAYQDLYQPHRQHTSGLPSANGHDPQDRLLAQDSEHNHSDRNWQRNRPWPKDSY
experimental_protocol: Fluorescent assay for CaV2.2 channels using potassium depolarization (VIPR/FLIPR)
Type: cell-based
particulars: FLIPR data; closed state; read-out: CAv2.2 IC50 Closed
experimental_readout: pIC50
pIC50 (log units): -log10 of the concentration in mol/L.

# compound CC(C)([C@H]1C[C@H](NC(=O)c2cc(C(F)(F)F)n[nH]2)C1)S(=O)(=O)c1cc(F)cc(C(F)(F)F)c1 [Compound 594] ; its pIC50 = 5.22

# compound O=C(NC[C@H]1C[C@H](S(=O)(=O)c2cccc(C(F)(F)F)c2)C1)c1ncc(C(F)(F)F)cn1 [Compound 574] ; its pIC50 = 5.00

# compound O=C(c1ccc(OCC(F)(F)F)nc1)N1CC(CS(=O)(=O)c2cc(F)cc(C(F)(F)F)c2)C1 [Compound 747] ; its pIC50 = 5.00

# compound CC(C)(C[C@H]1C[C@H](NC(=O)c2ccc(C(F)(F)F)nc2)C1)S(=O)(=O)c1cccc(C(F)(F)F)c1 [Compound 723] ; its pIC50 = 5.50

# compound CC(C)([C@H]1C[C@@H](NC(=O)CC2(N)CCCCC2)C1)S(=O)(=O)c1cccc(OC(F)(F)F)c1 [Compound 655] ; its pIC50 = 5.19

# compound CC(C)(C1CC(CNC(=O)c2ccc(C(F)(F)F)cc2S(C)(=O)=O)C1)S(=O)(=O)c1cccc(C(F)(F)F)c1 (stereo not drawn) [Compound 612] ; its pIC50 = 5.07

# compound CC(C)(C[C@H]1C[C@H](NC(=O)[C@H]2CCCC[C@H]2N)C1)S(=O)(=O)c1cccc(C(F)(F)F)c1 [Compound 742] ; its pIC50 = 5.47

# compound CC(C)(C1CC(CNC(=O)c2ccc(Cl)c(F)c2)C1)S(=O)(=O)c1cccc(C(F)(F)F)c1 (stereo not drawn) [Compound 617] ; its pIC50 = 5.87

# compound CC(C)(C[C@H]1C[C@H](NC(=O)[C@@H]2CCCC[C@@H]2N)C1)S(=O)(=O)c1cccc(C(F)(F)F)c1 [Compound 727] ; its pIC50 = 5.39

---

Please respond with reported pIC50 for every item in the list.
experimental_target: human α1G T-type channels (Homo sapiens)
experimental_protocol: T-type calcium channel block, whole cell patch clamp, α1G
particulars: HEK cells stably expressing human α1G; mainly non-inactivated protocol; values above 10,000 nM represented as 10000
pIC50: −log10 of the molar value.

# compound O=C(N[C@H]1CC[C@@](F)(S(=O)(=O)c2cccc(C(F)(F)F)c2)CC1)C1Cc2ccccc2N1 (stereo partly drawn) ; its pIC50 = < 5.00

# compound "O=C(N[C@H]1C[C@H](S(=O)(=O)c2cccc(C(F)(F)F)c2)C1)c1ccc(Cl)c(F)c1" ; its pIC50 = < 5.00

# compound "O=C(Nc1ccc(C(F)(F)F)cn1)[C@H]1C[C@@H](S(=O)(=O)c2cccc(C(F)(F)F)c2)C1" ; its pIC50 = < 5.00

---

Please respond with reported pIC50 for every item in the list.
experimental_target: Human Cav 2.2 channels (Homo sapiens)
experimental_protocol: Fluorescent assay for CaV2.2 channels using potassium depolarization (VIPR/FLIPR)
Format: cell-based
particulars: FLIPR data; inactivated state; read-out: CAv2.2 IC50 Inact.
pIC50 (log units): -log10 of the concentration in mol/L.

# molecule CC(C)([C@H]1C[C@H](NC(=O)c2ccc(OCC(F)(F)F)nc2)C1)S(=O)(=O)c1cccc(C(F)(F)F)c1 [Compound 674] ; its pIC50 = 6.54

# molecule CC(C)([C@H]1C[C@@H](CNc2ccc(F)c(Cl)c2)C1)S(=O)(=O)c1cccc(C(F)(F)F)c1 [Compound 753] ; its pIC50 = 6.48

---

experimental_target: N-type calcium channel subunits (α1B, α2δ, and β3a) (Homo sapiens)
experimental_protocol: Block of Cav2.2 channel, whole cell voltage clamp, manual and PatchXpress
Assay type: cell-based
particulars: Table 5; table follows Assay Example 3 (whole cell voltage clamp / PatchXpress); assay not given
experimental_readout: IC50 (nM)
Express your answer in nM, writing the number without its unit.

# compound "O=C(N[C@H]1CC[C@@H](S(=O)(=O)c2cccc(C(F)(F)F)c2)CC1)c1ccnn1CC(F)(F)F" ; its IC50 = 540

# compound "O=C(N[C@H]1CC[C@@H](S(=O)(=O)c2cccc(C(F)(F)F)c2)CC1)c1ccc(Cl)c(F)c1" ; its IC50 = 290

# compound "O=C(N[C@H]1CC[C@@H](S(=O)(=O)c2cccc(C(F)(F)F)c2)CC1)c1cc(F)cc(Cl)c1" ; its IC50 = 170

# compound "O=C(N[C@H]1CC[C@@](F)(S(=O)(=O)c2cccc(C(F)(F)F)c2)CC1)[C@@H]1C[C@H](c2ccccc2)CN1" ; its IC50 = 390

# compound "O=C(NC[C@H]1C[C@@H](S(=O)(=O)c2cccc(C(F)(F)F)c2)C1)c1ccc(F)c(C(F)(F)F)c1" ; its IC50 = 460

# compound "O=C(N[C@H]1CC[C@@](F)(S(=O)(=O)c2cccc(C(F)(F)F)c2)CC1)c1ccc(Cl)cc1Cl" ; its IC50 = 210

# compound "CN(CC(=O)N[C@H]1CC[C@H](CS(=O)(=O)c2cccc(C(F)(F)F)c2)CC1)C1CCCCC1" ; its IC50 = 470

# compound O=C(NC1CCC(S(=O)(=O)c2cccc(C(F)(F)F)c2)CC1)c1ccc(C(F)(F)F)cn1 (stereo not drawn) ; its IC50 = 1460

# compound CS(=O)(=O)c1cc(C(F)(F)F)ccc1C(=O)NCC1CC(S(=O)(=O)c2cccc(C(F)(F)F)c2)C1 (stereo not drawn) ; its IC50 = 570

# compound O=C(NCC1(O)CCC(S(=O)(=O)c2cccc(C(F)(F)F)c2)CC1)c1ccc(F)c(Cl)c1 (stereo not drawn) ; its IC50 = 790

# compound COc1cc(C(=O)NCC2(C)CCC(F)(S(=O)(=O)c3cccc(C(F)(F)F)c3)CC2)cc(Cl)n1 (stereo not drawn) ; its IC50 = 480

# compound "O=C(Nc1cncc(Cl)c1)[C@H]1C[C@@H](S(=O)(=O)c2cccc(C(F)(F)F)c2)C1" ; its IC50 = 1250

# compound "O=C(N[C@H]1CC[C@@H](S(=O)(=O)c2cccc(C(F)(F)F)c2)CC1)c1cnc(C(F)(F)F)nc1" ; its IC50 = 1700

# compound "CC(C)(C)NC(=O)CN[C@H]1CC[C@](F)(S(=O)(=O)c2cccc(C(F)(F)F)c2)CC1" ; its IC50 = 940

# compound COc1cc(F)cc(C(=O)NC2CCC(C)(S(=O)(=O)c3cccc(C(F)(F)F)c3)CC2)c1 (stereo not drawn) ; its IC50 = 70

# compound "O=C(NC[C@]1(O)CC[C@@H](S(=O)(=O)c2cccc(C(F)(F)F)c2)CC1)c1cc(C(F)(F)F)ccn1" ; its IC50 = 4560

# compound CC1(S(=O)(=O)c2cccc(C(F)(F)F)c2)CCC(NC(=O)c2cc(F)cc(Cl)c2)CC1 (stereo not drawn) ; its IC50 = 60

# compound CC1(NC(=O)c2ccc(C(F)(F)F)cc2S(C)(=O)=O)CCC(S(=O)(=O)c2cccc(C(F)(F)F)c2)CC1 (stereo not drawn) ; its IC50 = 650

# compound "O=C(Nc1ccc(Oc2ccc(F)c(Cl)c2)nc1)[C@H]1C[C@H](S(=O)(=O)c2cccc(C(F)(F)F)c2)C1" ; its IC50 = 1140

# compound "O=C(N[C@H]1CC[C@@H](CS(=O)(=O)c2cccc(C(F)(F)F)c2)CC1)c1ccc(C(F)(F)F)cn1" ; its IC50 = 950

# compound "O=C(N[C@H]1CC[C@@](F)(S(=O)(=O)c2cccc(C(F)(F)F)c2)CC1)[C@H]1C[C@@H]1c1ccccc1" ; its IC50 = 230

# compound "O=C(NC[C@H]1C[C@H](S(=O)(=O)c2cccc(C(F)(F)F)c2)C1)c1cn2cc(C(F)(F)F)ccc2n1" ; its IC50 = 190

# compound "CC(C)(C)NC(=O)CNC[C@H]1C[C@H](S(=O)(=O)c2cccc(C(F)(F)F)c2)C1" ; its IC50 = 1610

# compound "O=C(N[C@H]1CC[C@@H](S(=O)(=O)c2cccc(C(F)(F)F)c2)CC1)c1ccc(F)c(Cl)c1" ; its IC50 = 160

---

experimental_target: Human Cav 2.2 channels (Homo sapiens)
experimental_protocol: Fluorescent assay for CaV2.2 channels using potassium depolarization (VIPR/FLIPR)
Type: cell-based
particulars: FLIPR data; closed state; read-out: CAv2.2 IC50 Closed
experimental_readout: IC50 (µM)
Express your answer in µM, writing the number without its unit.

Fill in: Human Cav 2.2 channels (Homo sapiens) IC50 for "CC(C)([C@H]1C[C@H](C(=O)Nc2ccc(C(F)(F)F)nc2)C1)S(=O)(=O)c1cccc(C(F)(F)F)c1" = 2.87

Fill in: Human Cav 2.2 channels (Homo sapiens) IC50 for "CC(C)([C@H]1C[C@H](NS(=O)(=O)c2ccc(F)c(C(F)(F)F)c2)C1)S(=O)(=O)c1cc(F)cc(C(F)(F)F)c1" = 4.03

Fill in: Human Cav 2.2 channels (Homo sapiens) IC50 for "CC(C)(C[C@H]1C[C@H](NC(=O)[C@H]2CCCC[C@@H]2N)C1)S(=O)(=O)c1cccc(C(F)(F)F)c1" = 3.37

Fill in: Human Cav 2.2 channels (Homo sapiens) IC50 for "CC(C)([C@H]1C[C@@H](NC(=O)c2ccc(Cl)c(F)c2)C1)S(=O)(=O)c1cc(F)cc(C(F)(F)F)c1" = 2.37

Fill in: Human Cav 2.2 channels (Homo sapiens) IC50 for "O=S(=O)(c1cccc(OC(F)(F)F)c1)[C@H]1C[C@@H](CNc2ccnc(C(F)(F)F)n2)C1" = 9.9

Fill in: Human Cav 2.2 channels (Homo sapiens) IC50 for "CC(C)([C@H]1C[C@@H](NS(=O)(=O)c2ccc(F)c(Cl)c2)C1)S(=O)(=O)c1cc(F)cc(C(F)(F)F)c1" = 6.14
